molecular target: CDK4/Cyclin D1 (Homo sapiens, UniProt P11802); construct: the substrate was made in E. coli BL21 (DE3) pLysS; assay: CDK4 Inhibition Assay (Scintillation Proximity Assay, GST-Retinoblastoma substrate); conditions: in vitro kinase assay; read-out: CDK4 inhibitory activity IC50
Sequence (P11802 whole entry): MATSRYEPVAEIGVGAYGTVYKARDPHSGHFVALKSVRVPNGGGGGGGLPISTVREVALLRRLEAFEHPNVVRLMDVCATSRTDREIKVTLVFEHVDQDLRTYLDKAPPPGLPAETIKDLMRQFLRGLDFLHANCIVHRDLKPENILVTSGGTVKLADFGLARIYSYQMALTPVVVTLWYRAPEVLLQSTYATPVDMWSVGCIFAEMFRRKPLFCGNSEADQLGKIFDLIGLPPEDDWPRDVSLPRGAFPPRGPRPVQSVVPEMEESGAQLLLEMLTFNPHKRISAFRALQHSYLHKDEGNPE
Sequence (P24385 whole entry partner): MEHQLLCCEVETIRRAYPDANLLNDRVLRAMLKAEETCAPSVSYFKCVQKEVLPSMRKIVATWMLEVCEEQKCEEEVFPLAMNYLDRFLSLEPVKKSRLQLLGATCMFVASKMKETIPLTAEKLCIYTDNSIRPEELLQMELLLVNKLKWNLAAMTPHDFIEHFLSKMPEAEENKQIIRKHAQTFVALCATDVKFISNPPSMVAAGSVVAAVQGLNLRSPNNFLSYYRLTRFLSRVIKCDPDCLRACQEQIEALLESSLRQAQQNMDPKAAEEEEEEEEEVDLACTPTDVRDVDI
Metric name: IC50 (nM)
Quick reminder: number only, in nM, skip the unit.

Name the reported IC50 value associated with the compound Cc1ccc(F)c(Nc2nc(Nc3ccc(OCC(O)CN(C)C)cc3)ncc2Br)c1 (centres unmarked) 20

Now consider CN(C)CC(O)COc1ccc(Nc2ncc(Br)c(Nc3ccccc3)n2)cc1 (racemic) and answer again. 70
